Molecular target: 5-hydroxytryptamine receptor 7 (Homo sapiens, UniProt P34969)
Sequence (P34969 whole entry): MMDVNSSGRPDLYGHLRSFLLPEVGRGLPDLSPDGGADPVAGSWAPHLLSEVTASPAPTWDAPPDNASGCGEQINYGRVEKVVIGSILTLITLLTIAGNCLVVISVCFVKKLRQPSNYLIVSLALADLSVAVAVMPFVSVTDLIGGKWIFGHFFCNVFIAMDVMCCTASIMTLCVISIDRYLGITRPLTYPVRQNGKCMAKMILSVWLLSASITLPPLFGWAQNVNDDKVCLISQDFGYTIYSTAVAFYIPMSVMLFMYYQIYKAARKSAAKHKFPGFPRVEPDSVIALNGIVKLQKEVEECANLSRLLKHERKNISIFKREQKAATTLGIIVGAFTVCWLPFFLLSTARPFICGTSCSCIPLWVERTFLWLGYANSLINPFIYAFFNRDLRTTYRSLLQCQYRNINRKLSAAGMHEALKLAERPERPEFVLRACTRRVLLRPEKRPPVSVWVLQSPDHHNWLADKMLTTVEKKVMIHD
Settings: read-out: Ki
Description: Displacement of [3H]LSD from human 5HT7 receptor by liquid scintillation counting
Assignment: determine reported pKi for the given compounds.
Value format note: pKi is -log10 of concentration (mol/L); just state the number.

Give its pKi value. Item: c1cnc(N2CCN(CCCCc3nc4ccccc4s3)CC2)nc1
6.64

Give its pKi value. Item: Clc1ccc(N2CCN(CCCc3nc4ccccc4s3)CC2)cc1
6.10

Give its pKi value. Item: O=C(CCCCN1CCC2(CC1)C(=O)NCN2c1ccccc1)c1nc2ccccc2s1
6.29

Give its pKi value. Item: OC1(c2ccc(Cl)cc2)CCN(CCCCc2nc3ccccc3s2)CC1
6.01

Give its pKi value. Item: c1ccc2c(c1)CCN(CCCCc1nc3ccccc3s1)C2
7.45

Give its pKi value. Item: Clc1ccc(N2CCCN(CCCCc3nc4ccccc4s3)CC2)cc1
6.38

Give its pKi value. Item: Clc1ccc(N2CCCN(CCCc3nc4ccccc4s3)CC2)cc1
5.69

Give its pKi value. Item: O=C(CCCCN1CCN(c2ccc(Cl)cc2)CC1)c1nc2ccccc2s1
5.54

Give its pKi value. Item: O=C(CCCCN1CCCN(c2ccc(Cl)cc2)CC1)c1nc2ccccc2s1
5.55

Give its pKi value. Item: O=C(CCCCN1CCC(c2ccccc2)CC1)c1nc2ccccc2s1
6.97

Give its pKi value. Item: Clc1ccc(N2CCN(CCCCc3nc4ccccc4s3)CC2)cc1
6.48

Give its pKi value. Item: c1ccc2c(c1)CN(CCCCc1nc3ccccc3s1)C2
6.68

Give its pKi value. Item: O=C(CCCN1CCCN(c2ccc(Cl)cc2)CC1)c1nc2ccccc2s1
6.45
